Exercise: state measured self-cleavage for each of the variants provided.
B1: CPEB3 Ribozyme (parent)
chain: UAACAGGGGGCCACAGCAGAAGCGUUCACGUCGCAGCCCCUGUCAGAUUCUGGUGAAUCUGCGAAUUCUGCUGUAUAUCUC

variants of: B1; experiment: self-cleavage, relative activity (ratio to wild type); higher = more cleavage; in vitro, sequencing
Lab note: record just the number, no unit beside it.

Query :: // returns reported self-cleavage for input A28U C29U
Result :: 0.48

Query :: Repeat with C50G A75C
Result :: 0.54

Query :: Repeat with A15G C34A
Result :: 0.2

Query :: Repeat with U72A A75U
Result :: 1.22

Query :: Repeat with U48C U74A
Result :: 0.88

Query :: Repeat with G6A A35U
Result :: 0.26

Query :: Repeat with A15G A28G
Result :: 0.49

Query :: Repeat with U31G U54C
Result :: 0.63

Query :: Repeat with C34A
Result :: 0.34

Query :: Repeat with G30A U48A
Result :: 0.35

Query :: Repeat with U60C U76C
Result :: 0.51

Query :: Repeat with C32U U72C
Result :: 0.4

Query :: Repeat with U26C G70U
Result :: 0.26

Query :: Repeat with A3G U60A
Result :: 0.47

Query :: Repeat with U49A U54C
Result :: 0.54

Query :: Repeat with A20G U78A
Result :: 0.79

Query :: Repeat with A21G C23U
Result :: 0.2

Query :: Repeat with A20G C32A
Result :: 0.27

Query :: Repeat with G46U A77G
Result :: 0.2

Query :: Repeat with A28U U69G
Result :: 0.42

Query :: Repeat with C34G U78C
Result :: 0.22

Query :: Repeat with C50A A56G
Result :: 0.43

Query :: Repeat with G24A U76C
Result :: 0.26

Query :: Repeat with A3U A28G
Result :: 0.88

Query :: Repeat with C29U C59A
Result :: 0.24

Query :: Repeat with U48C U60G
Result :: 0.33

Query :: Repeat with A21U C23G
Result :: 0.07

Query :: Repeat with C4A C59A
Result :: 0.33

Query :: Repeat with U66C U67C
Result :: 0.32

Query :: Repeat with C37U U51G
Result :: 0.61

Query :: Repeat with A5G A75G
Result :: 0.49

Query :: Repeat with G16A U43C
Result :: 0.39

Query :: Repeat with A20G U76A
Result :: 1.03

Query :: Repeat with G9A A77C
Result :: 0.17
